Test: PK assessment: plasma tinostamustine and metabolites M2 and M8, non-compartmental analysis and population PK model
Assay type: in vivo, human
Settings: human, plasma, intravenous, 100 mg/m^2, 100 mg/m^2, infusion 60 minutes, day one, Mean (SD)
reported-property: Tmax (min)

>>> df
                                   molecule  reported_property  result
0  Cn1c(CCCCCCC(=O)NO)nc2cc(N(CCCl)CCCl)ccc21 [tinostamustine]               Tmax      42

---

Test: PK assessment: plasma tinostamustine and metabolites M2 and M8, non-compartmental analysis and population PK model
Format: in vivo, human
Details: human, plasma, intravenous, 40 mg/m^2, 40 mg/m^2, infusion 60 minutes, day one, Mean (SD)
reported-property: Tmax (min)

>>> df
                           smiles_structure  reported_property  result
0  Cn1c(CCCCCCC(=O)NO)nc2cc(N(CCCl)CCCl)ccc21               Tmax      24

---

Experiment: PK assessment: plasma tinostamustine and metabolites M2 and M8, non-compartmental analysis and population PK model
Format: in vivo, human
Details: human, plasma, intravenous, 120 mg/m^2, 120 mg/m^2, infusion 60 minutes, day one, Mean (SD)
reported-property: AUC (ng·h/mL)

>>> df
                           smiles_structure  reported_property  result
0  Cn1c(CCCCCCC(=O)NO)nc2cc(N(CCCl)CCCl)ccc21                AUC    1640

---

Experiment: PK assessment: plasma tinostamustine and metabolites M2 and M8, non-compartmental analysis and population PK model
Format: in vivo, human
Conditions: human, plasma, intravenous, 80 mg/m^2, 80 mg/m^2, infusion 60 minutes, day one, Mean (SD)
Method: Plasma samples were collected to determine the concentrations of tinostamustine and its metabolites (labelled M2 and M8) by a method fully validated according to the relevant guidelines. The PK profiles of tinostamustine in plasma were assessed in each patient in the escalation stage of the study, in cycle 1 only. […]
reported-property: AUC (ng·h/mL)

>>> df
                           smiles_structure  result
0  Cn1c(CCCCCCC(=O)NO)nc2cc(N(CCCl)CCCl)ccc21     902
